Target: HLA B*2705 (Homo sapiens, UniProt P01889, D138H/D201E/E176V/E204Q/G107R/H137Y/K202T/N104T/N87E/Q56L/Q94K/R106L/R155S/R180L/S101D/S121N/S48T/Y140D/Y33H/Y91C)
Assay type: binding
Settings: positional scanning combinatorial 9-mer library; normalized to 1.0 for the best residue at each position
Cut-off 0.2 on Normalized average relative binding affinity (ARB), HLA B*2705, inclusive. At or above means true; below means false.

Q. State whether the measured Normalized average relative binding affinity (ARB), HLA B*2705 reaches 0.2, counting equality as reaching it, for XXXDXXXXX [3064.0063]
A. true

Q. State whether the measured Normalized average relative binding affinity (ARB), HLA B*2705 reaches 0.2, counting equality as reaching it, for XXKXXXXXX [3064.0049]
A. true

Q. State whether the measured Normalized average relative binding affinity (ARB), HLA B*2705 reaches 0.2, counting equality as reaching it, for XVXXXXXXX [3064.0038]
A. false

Q. State whether the measured Normalized average relative binding affinity (ARB), HLA B*2705 reaches 0.2, counting equality as reaching it, for XAXXXXXXX [3064.0021]
A. false

Q. State whether the measured Normalized average relative binding affinity (ARB), HLA B*2705 reaches 0.2, counting equality as reaching it, for XEXXXXXXX [3064.0024]
A. false

Q. State whether the measured Normalized average relative binding affinity (ARB), HLA B*2705 reaches 0.2, counting equality as reaching it, for QXXXXXXXX [3064.0014]
A. false

Q. State whether the measured Normalized average relative binding affinity (ARB), HLA B*2705 reaches 0.2, counting equality as reaching it, for YXXXXXXXX [3064.0020]
A. true

Q. State whether the measured Normalized average relative binding affinity (ARB), HLA B*2705 reaches 0.2, counting equality as reaching it, for XXMXXXXXX [3064.0051]
A. true

Q. State whether the measured Normalized average relative binding affinity (ARB), HLA B*2705 reaches 0.2, counting equality as reaching it, for XXGXXXXXX [3064.0046]
A. false

Q. State whether the measured Normalized average relative binding affinity (ARB), HLA B*2705 reaches 0.2, counting equality as reaching it, for XXAXXXXXX [3064.0041]
A. true

Q. State whether the measured Normalized average relative binding affinity (ARB), HLA B*2705 reaches 0.2, counting equality as reaching it, for AXXXXXXXX [3064.0001]
A. true

Q. State whether the measured Normalized average relative binding affinity (ARB), HLA B*2705 reaches 0.2, counting equality as reaching it, for XXVXXXXXX [3064.0058]
A. false

Q. State whether the measured Normalized average relative binding affinity (ARB), HLA B*2705 reaches 0.2, counting equality as reaching it, for LXXXXXXXX [3064.0010]
A. true

Q. State whether the measured Normalized average relative binding affinity (ARB), HLA B*2705 reaches 0.2, counting equality as reaching it, for XXQXXXXXX [3064.0054]
A. false

Q. State whether the measured Normalized average relative binding affinity (ARB), HLA B*2705 reaches 0.2, counting equality as reaching it, for XXEXXXXXX [3064.0044]
A. false

Q. State whether the measured Normalized average relative binding affinity (ARB), HLA B*2705 reaches 0.2, counting equality as reaching it, for XXLXXXXXX [3064.0050]
A. true

Q. State whether the measured Normalized average relative binding affinity (ARB), HLA B*2705 reaches 0.2, counting equality as reaching it, for FXXXXXXXX [3064.0005]
A. true

Q. State whether the measured Normalized average relative binding affinity (ARB), HLA B*2705 reaches 0.2, counting equality as reaching it, for HXXXXXXXX [3064.0007]
A. true

Q. State whether the measured Normalized average relative binding affinity (ARB), HLA B*2705 reaches 0.2, counting equality as reaching it, for XRXXXXXXX [3064.0035]
A. true

Q. State whether the measured Normalized average relative binding affinity (ARB), HLA B*2705 reaches 0.2, counting equality as reaching it, for NXXXXXXXX [3064.0012]
A. false

Q. State whether the measured Normalized average relative binding affinity (ARB), HLA B*2705 reaches 0.2, counting equality as reaching it, for MXXXXXXXX [3064.0011]
A. true

Q. State whether the measured Normalized average relative binding affinity (ARB), HLA B*2705 reaches 0.2, counting equality as reaching it, for XQXXXXXXX [3064.0034]
A. false

Q. State whether the measured Normalized average relative binding affinity (ARB), HLA B*2705 reaches 0.2, counting equality as reaching it, for XXIXXXXXX [3064.0048]
A. true

Q. State whether the measured Normalized average relative binding affinity (ARB), HLA B*2705 reaches 0.2, counting equality as reaching it, for XXDXXXXXX [3064.0043]
A. false

Q. State whether the measured Normalized average relative binding affinity (ARB), HLA B*2705 reaches 0.2, counting equality as reaching it, for XXXCXXXXX [3064.0062]
A. true

Q. State whether the measured Normalized average relative binding affinity (ARB), HLA B*2705 reaches 0.2, counting equality as reaching it, for XHXXXXXXX [3064.0027]
A. false

Q. State whether the measured Normalized average relative binding affinity (ARB), HLA B*2705 reaches 0.2, counting equality as reaching it, for XFXXXXXXX [3064.0025]
A. false

Q. State whether the measured Normalized average relative binding affinity (ARB), HLA B*2705 reaches 0.2, counting equality as reaching it, for WXXXXXXXX [3064.0019]
A. true

Q. State whether the measured Normalized average relative binding affinity (ARB), HLA B*2705 reaches 0.2, counting equality as reaching it, for EXXXXXXXX [3064.0004]
A. false

Q. State whether the measured Normalized average relative binding affinity (ARB), HLA B*2705 reaches 0.2, counting equality as reaching it, for PXXXXXXXX [3064.0013]
A. false

Q. State whether the measured Normalized average relative binding affinity (ARB), HLA B*2705 reaches 0.2, counting equality as reaching it, for XDXXXXXXX [3064.0023]
A. false

* * *

Target: HLA A*3001 (Homo sapiens, UniProt P04439, D140H/D185E/E176W/F33S/G80R/H175R/K168Q/R138E/R41S)
Assay: biochemical
Where a SMILES comes first, the peptide text is derived from it.
I'd appreciate it if you could supply pIC50 values for the items below.
Value format note: pIC50 is -log10 of concentration (mol/L); just state the number.

Q. // Input: CC[C@H](C)[C@H](NC(=O)[C@H](CCCCN)NC(=O)[C@H](C)NC(=O)CN)C(=O)NCC(=O)N[C@@H](CS)C(=O)N[C@H](C(=O)N[C@@H](CC(N)=O)C(=O)N[C@H](C(=O)O)C(C)C)[C@@H](C)CC [3102.1347] (H-GAKIGCINV-OH) . Output its pIC50 only.
A. 8.04

Q. // Input: CC(C)C[C@H](NC(=O)[C@H](Cc1c[nH]cn1)NC(=O)[C@H](CC(N)=O)NC(=O)[C@H](CS)NC(=O)[C@H](CCCNC(=N)N)NC(=O)[C@H](C)NC(=O)[C@@H](N)CCCCN)C(=O)N[C@H](C(=O)N[C@@H](CCCCN)C(=O)O)[C@@H](C)O [3102.0131] (H-KARCNHLTK-OH) . Output its pIC50 only.
A. 9.68

Q. // Input: CC[C@H](C)[C@H](NC(=O)[C@H](CCSC)NC(=O)[C@H](Cc1ccccc1)NC(=O)[C@H](CC(=O)O)NC(=O)[C@H](CC(N)=O)NC(=O)[C@H](CCCCN)NC(=O)[C@@H](NC(=O)[C@@H](N)Cc1c[nH]cn1)[C@@H](C)CC)C(=O)N[C@@H](CCCCN)C(=O)O [3102.0101] (H-HIKNDFMIK-OH) . Output its pIC50 only.
A. 8.80

Q. // Input: CC[C@H](C)[C@H](N)C(=O)N[C@@H](CO)C(=O)N[C@@H](CCCNC(=N)N)C(=O)N[C@@H](CO)C(=O)N[C@@H](CCCNC(=N)N)C(=O)N[C@@H](CCCNC(=N)N)C(=O)N[C@@H](CC(C)C)C(=O)N[C@@H](Cc1ccccc1)C(=O)N[C@@H](C)C(=O)O [3102.0065] (H-ISRSRRLFA-OH) . Output its pIC50 only.
A. 8.66

* * *

Molecular target: HLA B*1503 (Homo sapiens, UniProt P01889, A329T/A93T/A95T/C349S/D201E/D98Y/E187L/E204Q/K202T/N87E/Q94N/R155S/R180L/S121R/S35A/V306I/V36M/Y140S/Y91S)
Assay: biochemical
Where a SMILES comes first, the peptide text is derived from it.
I'd appreciate it if you could supply pIC50 values for the items below.
Value format note: pIC50 is -log10 of concentration (mol/L); just state the number.

Q. // Input: CSCC[C@H](NC(=O)[C@H](C)NC(=O)[C@H](CC(C)C)NC(=O)[C@H](CO)NC(=O)[C@H](CCCCN)NC(=O)[C@@H](N)CCSC)C(=O)N[C@H](C(=O)N[C@@H](C)C(=O)N[C@@H](Cc1ccccc1)C(=O)O)[C@@H](C)O [3102.1092] (H-MKSLAMTAF-OH) . Output its pIC50 only.
A. 9.74

Q. // Input: CC[C@H](C)[C@H](NC(=O)[C@H](Cc1ccccc1)NC(=O)[C@H](CCCNC(=N)N)NC(=O)[C@H](CCC(=O)O)NC(=O)[C@@H](NC(=O)[C@H](CCSC)NC(=O)[C@@H](N)Cc1ccc(O)cc1)[C@@H](C)CC)C(=O)N[C@@H](CO)C(=O)N[C@@H](Cc1ccccc1)C(=O)O [3102.1085] (H-YMIERFISF-OH) . Output its pIC50 only.
A. 10.34
